These data points were gathered from PubChem BioAssay AID603.

Test system: DNA polymerase III holoenzyme (E. coli)
EXPERIMENT NOTES: qHTS Assay for Inhibitors of DNA Polymerase III Holoenzyme System; on activity change, negative = inhibition: on the % scale 0 is the no-effect control and ±100 the full control effect
MEASUREMENT SETUP: reconstituted DNA polymerase III holoenzyme replication, biochemical; series mostly up to 57.1 µM
Among all 71,000 compounds or so, about 180 (0.25%) were called active. This is one part of a sample in which actives are shown more often than they occur.
EXPERIMENTAL READOUT: activity change, negative = inhibition

Example results:
[[record]]
molecule = "Cn1c(SCC(=O)Nc2cccc(NC(=O)c3cccs3)c2)nnc1-c1ccncc1"
value_reported = "inactive"

[[record]]
molecule = "C[C@@H](C(=O)Nc1ccc2ccccc2c1)[C@@H]1C[C@@]1(C)[C@@H](NC(=O)c1cccnc1)c1ccccc1"
value_reported = "inactive"

[[record]]
molecule = "Cc1[nH]c(N)nc(=S)c1CCCNc1ccccc1"
value_reported = "-9.5% [at 11.4 µM] (inactive)"

[[record]]
molecule = "CN(C)C(=O)c1ccc(-c2cncnc2NC2CCNCC2)cc1"
value_reported = "inactive"

[[record]]
molecule = "CCOc1ccccc1C1C(C(=O)OC)=CN(C)C=C1C(=O)OC"
value_reported = "inactive"

[[record]]
molecule = "CC(=O)N1[C@H](C)C=C[C@]1(Cc1ccccc1)C(=O)NCc1ccccn1"
value_reported = "inactive"

[[record]]
molecule = "O=C(NCc1ccccn1)c1cc2ccccc2oc1=O"
value_reported = "inactive"

[[record]]
molecule = "COc1ccc(C(=O)OCC(=O)c2ccc(C)c(S(=O)(=O)N3CCOCC3)c2)cc1OC"
value_reported = "inactive"


Problem: Consider the molecule shown here: COc1ccc(-c2nnc(SCC(=O)NC3CCCCC3)o2)cc1OC What is its recorded activity change, negative = inhibition?
Result: inactive

Problem: Moving on to C=CCOC(=O)c1ccccc1C(=O)OCC=C
Result: inactive

Problem: Moving on to Cc1ccccc1C(=O)O
Result: inactive

---

System: DNA polymerase III holoenzyme (E. coli)
EXPERIMENT NOTES: qHTS Assay for Inhibitors of DNA Polymerase III Holoenzyme System; on activity change, negative = inhibition: on the % scale 0 is the no-effect control and ±100 the full control effect
MEASUREMENT SETUP: reconstituted DNA polymerase III holoenzyme replication, biochemical; series mostly up to 57.1 µM
The whole screen tested about 71,000 compounds, of which about 180 (0.25%) were called active. For the sample, actives were picked, then their nearest neighbours and some compounds at random.
EXPERIMENTAL READOUT: activity change, negative = inhibition

Example results:
[[record]]
compound = "N#Cc1ccccc1-c1ccc2ncnc(NCc3cccnc3)c2c1"
assay_system = "DNA polymerase III holoenzyme (E. coli)"
value_reported = "inactive"

[[record]]
compound = "Cc1cc(=O)oc(C)c1C(=O)NCc1ccc(F)cc1"
assay_system = "DNA polymerase III holoenzyme (E. coli)"
value_reported = "inactive"

[[record]]
compound = "CCOc1ccc(CCNC(=O)C2CCN(c3ccc(N4CCOCC4)nn3)CC2)cc1OCC"
assay_system = "DNA polymerase III holoenzyme (E. coli)"
value_reported = "inactive"

[[record]]
compound = "COc1cccc2sc(Nc3nc(C)c(C(C)=O)s3)nc12"
assay_system = "DNA polymerase III holoenzyme (E. coli)"
value_reported = "inactive"

[[record]]
compound = "CCCCNC(=O)CSc1nnc(-c2ccco2)n1C"
assay_system = "DNA polymerase III holoenzyme (E. coli)"
value_reported = "inactive"


Here is another compound to look at.
Problem: Requested read-out activity change, negative = inhibition, target or system DNA polymerase III holoenzyme (E. coli), entry COc1ccc(CC(=O)n2nc(-c3cccnc3)nc2N)cc1
Result: inactive

---

Tested on: DNA polymerase III holoenzyme (E. coli)
EXPERIMENT NOTES: qHTS Assay for Inhibitors of DNA Polymerase III Holoenzyme System; further: potency means the concentration at half of the fitted maximal effect
MEASUREMENT SETUP: reconstituted DNA polymerase III holoenzyme replication, biochemical; series mostly up to 57.1 µM
The campaign covered roughly 71,000 compounds. About 180 (0.25%) were called active. The sample as a whole holds a higher share of actives than the screen did.
In this section we review reported Potency values for a set of molecules.

Example results:
[[record]]
molecule = "O=C1C(c2[nH]c3ccccc3c2O)=Nc2ccccc21"
experimental_readout = "Potency"
value_reported = "3.98 µM (active)"

[[record]]
molecule = "CC[N+](C)(CC)CCC[n+]1c(-c2ccccc2)c2cc(N)ccc2c2ccc(N)cc21"
experimental_readout = "Potency"
value_reported = "2 µM (active)"

[[record]]
molecule = "O=C(O)c1ccc(C(=O)c2ccccc2C(=O)O)cc1C(=O)O"
experimental_readout = "Potency"
value_reported = "3.98 µM (active)"


Problem: Consider the molecule shown here: O=C(NCc1ccccn1)c1ccc2nc(-c3ccco3)c(-c3ccco3)nc2c1 What is its recorded Potency?
Result: 3.98 µM (active)

Problem: Moving on to CCN1CCCC1CNC(=O)c1cc2c(=O)n(C)c3ccccc3c2n1C (stereo not given)
Result: 25.1 µM (active)

---

System: DNA polymerase III holoenzyme (E. coli)
EXPERIMENT NOTES: qHTS Assay for Inhibitors of DNA Polymerase III Holoenzyme System; on activity change, negative = inhibition: on the % scale 0 is the no-effect control and ±100 the full control effect
MEASUREMENT SETUP: reconstituted DNA polymerase III holoenzyme replication, biochemical; series mostly up to 57.1 µM
Screen size: about 71,000 compounds; about 180 (0.25%) were called active. Many of the other results were omitted from the sample, so actives are more common in it than they were.
EXPERIMENTAL READOUT: activity change, negative = inhibition

[[record]]
compound = "CCCCSc1nc2c(c(=O)n1CC)SC(C)C2 (centres undefined)"
value_reported = "inactive"

[[record]]
compound = "COC(=O)C1(C)C=CCN1C(=O)c1ccccc1 (centres undefined)"
value_reported = "inactive"

[[record]]
compound = "NCCNCC1CCNCC1"
value_reported = "-9.7% [at 11.4 µM] (inactive)"

[[record]]
compound = "Cc1cc(Nc2ccc(Br)cc2F)n2ncnc2n1"
value_reported = "inactive"


---

Tested on: DNA polymerase III holoenzyme (E. coli)
EXPERIMENT NOTES: qHTS Assay for Inhibitors of DNA Polymerase III Holoenzyme System; on activity change, negative = inhibition: on the % scale 0 is the no-effect control and ±100 the full control effect
MEASUREMENT SETUP: reconstituted DNA polymerase III holoenzyme replication, biochemical; series mostly up to 57.1 µM
Out of some 71,000 compounds screened, about 180 (0.25%) were called active. For the sample, actives were picked, then their nearest neighbours and some compounds at random.
EXPERIMENTAL READOUT: activity change, negative = inhibition

Example results:
[[record]]
compound = "CCCC(=O)Nc1c(O)c2ccccc2[nH]c1=O"
experimental_readout = "activity change, negative = inhibition"
value_reported = "inactive"

[[record]]
compound = "O=C(C1CCCO1)N1CCC(c2nc3ccccc3[nH]2)CC1 (centres undefined)"
experimental_readout = "activity change, negative = inhibition"
value_reported = "inactive"

[[record]]
compound = "Cc1ccc(N2C(=O)c3oc4ccccc4c(=O)c3C2c2cccnc2)nc1 (centres undefined)"
experimental_readout = "activity change, negative = inhibition"
value_reported = "inactive"

[[record]]
compound = "Cc1cccc(C(=O)O)c1"
experimental_readout = "activity change, negative = inhibition"
value_reported = "inactive"


Problem: Requested read-out activity change, negative = inhibition, target or system DNA polymerase III holoenzyme (E. coli), entry COc1ccc(CCNC(=O)CCn2c(=O)oc3ccccc32)cc1OC
Result: inactive

Problem: Moving on to OCCNCCCCOc1ccccc1F
Result: -4.9% [at 11.4 µM] (inactive)

Problem: Moving on to CCC1Oc2ccc(Cl)cc2N(CC(=O)O)C1=O (centres undefined)
Result: inactive

Problem: Moving on to CCOc1cc(-c2nc3cc(C)ccn3c2NCC2CCCO2)ccc1O (centres undefined)
Result: inactive

Problem: Moving on to c1cncc(-c2nc(N3CCNCC3)c3ccccc3n2)c1
Result: inactive

Problem: Moving on to O=C(c1ccc(O)cc1)c1ccc(C(=O)O)c(C(=O)O)c1
Result: inactive

Problem: Moving on to CC1COC2C(O1)N(S(C)(=O)=O)CCN2S(C)(=O)=O (centres undefined)
Result: inactive

Problem: Moving on to CS(=O)(=O)Nc1cccc(-c2cncnc2Nc2ccccc2)c1
Result: inactive

Problem: Moving on to COc1cccc(NC(=O)Cn2cnc3sc(C)c(S(=O)(=O)N4CCN(C)CC4)c3c2=O)c1
Result: inactive

Problem: Moving on to O=C(NCc1cccnc1)c1cn(-c2ccccc2)nc1-c1cccs1
Result: inactive

Problem: Moving on to CC(C)c1cc(CN(C)C)c(O)c(C(C)(C)C)c1
Result: -6.4% [at 11.4 µM] (inactive)

Problem: Moving on to CC(=O)Oc1cccc(N2C(=O)C3CC=C(Cl)CC3C2=O)c1 (centres undefined)
Result: inactive

Problem: Moving on to O=C(Nc1c(-c2ccccc2)nc2c(Br)cc(Br)cn12)c1ccco1
Result: inactive

Problem: Moving on to O=C1N(Cc2ccc3c(c2)OCO3)c2ccccc2C1(O)c1c[nH]c2ccccc12 (centres undefined)
Result: inactive

Problem: Moving on to COc1ccccc1-c1c(C)nn2c(C)c(C(C)=O)cnc12
Result: inactive

Problem: Moving on to CC(=O)O[C@]1(C(C)=O)CC[C@@H]2[C@@H]3C=C(C)C4=CC(=O)CC[C@@]4(C)[C@H]3CC[C@]21C
Result: inactive

Problem: Moving on to COc1ccc(OC)c(CN2C(=O)CCC2(C)C(=O)NC2CCCCCC2)c1 (centres undefined)
Result: inactive
